- target: CathepsinG, from human neutrophils (Homo sapiens, UniProt P08311)
- Sequence (P08311 21-244): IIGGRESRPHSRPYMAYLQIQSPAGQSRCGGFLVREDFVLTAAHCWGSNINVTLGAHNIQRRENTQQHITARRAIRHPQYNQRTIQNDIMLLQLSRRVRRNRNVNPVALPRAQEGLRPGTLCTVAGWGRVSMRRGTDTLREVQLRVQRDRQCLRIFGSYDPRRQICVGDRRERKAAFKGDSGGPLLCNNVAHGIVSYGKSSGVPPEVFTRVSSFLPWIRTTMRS
- test.method.notes: Enzymatic assay, cathepsin G
- measurement.context: Cathepsin G IC50
Where a SMILES comes first, the peptide text is derived from it.
property.measured: IC50 (nM)
Give a bare numeral; the unit nM is implied.

Reported IC50 for CC[C@@H](C)[C@H]1NC(=O)[C@H](CO)NC(=O)[C@@H]2CSSC[C@H](NC(=O)[C@H](Cc3ccccc3)NC(=O)[C@@H]3CCCN3C1=O)C(=O)N[C@@H]([C@@H](C)O)C(=O)N[C@@H](CCCCN)C(=O)N[C@@H](CO)C(=O)N[C@@H](CC(=O)O)C(=O)N1CCC[C@H]1C(=O)N1CCC[C@H]1C(=O)N[C@@H]([C@@H](C)CC)C(=O)N2 [Ex. 50] (HELM PEPTIDE1{F.C.T.K.S.D.P.P.I.C.S.[dI].P}$PEPTIDE1,PEPTIDE1,2:R3-10:R3|PEPTIDE1,PEPTIDE1,1:R1-13:R2$$$V2.0) : what is it?
89
